The entries below come with measured FACS Cell Binding values attached.
tested system: T1, human PRLR on HEK293/hPRLR cells (Homo sapiens, UniProt P16471)
T1 construct: HA; expressed in transfected cells; host or cells: HEK293
T1 sequence (P16471 25-622): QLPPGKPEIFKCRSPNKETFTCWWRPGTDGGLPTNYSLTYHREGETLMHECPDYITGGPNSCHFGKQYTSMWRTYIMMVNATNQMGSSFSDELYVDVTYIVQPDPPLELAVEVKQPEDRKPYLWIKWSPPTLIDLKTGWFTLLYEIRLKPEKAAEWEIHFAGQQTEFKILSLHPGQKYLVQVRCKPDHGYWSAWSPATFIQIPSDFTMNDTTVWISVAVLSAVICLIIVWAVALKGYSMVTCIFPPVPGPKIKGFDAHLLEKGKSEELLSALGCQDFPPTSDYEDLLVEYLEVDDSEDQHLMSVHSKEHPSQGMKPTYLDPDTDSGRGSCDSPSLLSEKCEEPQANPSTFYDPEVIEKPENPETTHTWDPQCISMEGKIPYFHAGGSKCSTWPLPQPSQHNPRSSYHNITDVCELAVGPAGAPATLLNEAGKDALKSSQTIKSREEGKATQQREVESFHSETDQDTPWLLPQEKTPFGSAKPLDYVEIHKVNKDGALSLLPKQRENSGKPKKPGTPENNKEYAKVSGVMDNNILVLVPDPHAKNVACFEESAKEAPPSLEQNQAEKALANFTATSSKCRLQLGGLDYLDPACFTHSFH
experiment description: FACS cell surface binding
The reply should contain only the number, in Fold Above Background.

Below: 7 molecules and their reported FACS Cell Binding.
H1H6804P: fully human anti-PRLR antibody, human IgG1 Fc; HCVR/LCVR SEQ ID NOs 242/250 (antibody, V domains shown) VH: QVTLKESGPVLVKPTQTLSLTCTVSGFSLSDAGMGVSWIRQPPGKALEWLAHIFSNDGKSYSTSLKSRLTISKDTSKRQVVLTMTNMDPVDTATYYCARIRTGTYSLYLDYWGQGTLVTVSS VL: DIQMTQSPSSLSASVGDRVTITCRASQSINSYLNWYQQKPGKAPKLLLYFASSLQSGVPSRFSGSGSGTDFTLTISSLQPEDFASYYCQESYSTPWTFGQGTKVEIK = 1
H1H6959N2: anti-PRLR antibody, human IgG1 Fc form of H2M6959N2 of Table 1; HCVR/LCVR SEQ ID NOs 306/314 (antibody, V domains shown) VH: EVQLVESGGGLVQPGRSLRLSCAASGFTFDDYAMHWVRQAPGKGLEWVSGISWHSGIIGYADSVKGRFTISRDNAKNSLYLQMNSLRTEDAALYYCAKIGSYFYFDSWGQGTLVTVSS VL: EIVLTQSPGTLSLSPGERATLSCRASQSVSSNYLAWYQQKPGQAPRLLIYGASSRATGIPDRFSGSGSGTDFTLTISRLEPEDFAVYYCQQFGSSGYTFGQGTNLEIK = 6
H1H6792P: fully human anti-PRLR antibody, human IgG1 Fc; HCVR/LCVR SEQ ID NOs 130/138 (antibody, V domains shown) VH: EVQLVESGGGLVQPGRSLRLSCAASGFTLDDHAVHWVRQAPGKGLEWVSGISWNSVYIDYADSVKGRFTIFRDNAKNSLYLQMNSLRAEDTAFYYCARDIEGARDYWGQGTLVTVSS VL: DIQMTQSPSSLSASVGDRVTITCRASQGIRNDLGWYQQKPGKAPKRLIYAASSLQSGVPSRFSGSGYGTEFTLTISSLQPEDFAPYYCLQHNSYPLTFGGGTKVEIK = 37
H1H6765P: fully human anti-PRLR antibody, human IgG1 Fc; HCVR/LCVR SEQ ID NOs 18/26 (antibody, V domains shown) VH: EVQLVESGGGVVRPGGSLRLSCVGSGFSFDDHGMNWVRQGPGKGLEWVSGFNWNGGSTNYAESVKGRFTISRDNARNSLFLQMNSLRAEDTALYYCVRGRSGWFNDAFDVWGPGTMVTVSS VL: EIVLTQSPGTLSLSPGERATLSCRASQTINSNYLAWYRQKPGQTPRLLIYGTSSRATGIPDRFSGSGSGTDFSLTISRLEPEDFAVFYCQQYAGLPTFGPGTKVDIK = 38
H1H6966N: anti-PRLR antibody, human IgG1 Fc form of H2M6966N of Table 1; HCVR/LCVR SEQ ID NOs 338/346 (antibody, V domains shown, human IgG1 Fc) VH: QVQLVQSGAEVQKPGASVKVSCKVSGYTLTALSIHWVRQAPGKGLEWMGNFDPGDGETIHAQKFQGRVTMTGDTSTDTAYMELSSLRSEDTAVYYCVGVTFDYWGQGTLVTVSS VL: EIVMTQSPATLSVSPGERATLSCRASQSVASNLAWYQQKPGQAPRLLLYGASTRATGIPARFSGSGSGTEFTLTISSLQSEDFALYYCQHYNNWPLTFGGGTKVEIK = 29
H1H6781P: fully human anti-PRLR antibody, human IgG1 Fc; HCVR/LCVR SEQ ID NOs 50/58 (antibody, V domains shown) VH: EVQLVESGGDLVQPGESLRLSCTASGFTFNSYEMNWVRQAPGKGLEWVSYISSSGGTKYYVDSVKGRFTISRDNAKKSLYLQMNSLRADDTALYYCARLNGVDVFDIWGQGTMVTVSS VL: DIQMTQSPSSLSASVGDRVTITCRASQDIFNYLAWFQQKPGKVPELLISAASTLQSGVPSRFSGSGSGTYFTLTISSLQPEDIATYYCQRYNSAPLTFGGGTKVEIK = 37
H1H6800P: fully human anti-PRLR antibody, human IgG1 Fc; HCVR/LCVR SEQ ID NOs 194/202 (antibody, V domains shown) VH: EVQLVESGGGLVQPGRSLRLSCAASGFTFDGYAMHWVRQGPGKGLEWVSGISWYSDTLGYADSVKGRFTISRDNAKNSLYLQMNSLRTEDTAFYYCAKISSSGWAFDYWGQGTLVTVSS VL: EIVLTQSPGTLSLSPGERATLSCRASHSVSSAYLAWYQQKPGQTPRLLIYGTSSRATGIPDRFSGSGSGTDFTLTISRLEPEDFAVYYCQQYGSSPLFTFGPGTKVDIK = 35

// moving on: another record for FACS Cell Binding
### Prompt For the molecule shown here, H1H6960N: anti-PRLR antibody, human IgG1 Fc form of H2M6960N of Table 1; HCVR/LCVR SEQ ID NOs 322/330 (antibody, V domains shown, human IgG1 Fc) VH: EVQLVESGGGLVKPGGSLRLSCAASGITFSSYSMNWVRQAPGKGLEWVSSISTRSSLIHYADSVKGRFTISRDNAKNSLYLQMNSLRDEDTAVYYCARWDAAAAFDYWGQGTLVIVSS VL: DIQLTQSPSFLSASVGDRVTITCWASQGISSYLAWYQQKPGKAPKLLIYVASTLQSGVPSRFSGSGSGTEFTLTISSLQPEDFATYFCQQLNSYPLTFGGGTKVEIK , give the reported FACS Cell Binding.
### Response 29
